# target of assay: T1, Angiopoietin 2 (UniProt O15123)
# T1 chain: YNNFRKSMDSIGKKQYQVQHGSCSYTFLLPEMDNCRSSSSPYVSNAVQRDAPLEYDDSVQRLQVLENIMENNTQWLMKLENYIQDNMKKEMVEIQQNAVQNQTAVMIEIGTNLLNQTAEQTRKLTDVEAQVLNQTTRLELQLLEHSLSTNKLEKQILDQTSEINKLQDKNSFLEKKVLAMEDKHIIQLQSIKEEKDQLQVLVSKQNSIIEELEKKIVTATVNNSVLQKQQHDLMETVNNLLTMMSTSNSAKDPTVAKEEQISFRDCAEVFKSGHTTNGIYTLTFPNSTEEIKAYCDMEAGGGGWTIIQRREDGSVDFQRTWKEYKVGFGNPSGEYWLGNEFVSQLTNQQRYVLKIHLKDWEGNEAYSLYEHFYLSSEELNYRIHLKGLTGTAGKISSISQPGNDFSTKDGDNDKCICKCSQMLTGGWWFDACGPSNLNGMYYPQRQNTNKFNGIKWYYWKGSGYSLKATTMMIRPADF
# test name: competition, blocking Tie-2
observed property: IC50 (nM)
Return type: number; implicit unit nM.

Tell me measured IC50 for HC22/LC22 (antibody, V domains shown) VH: EVQLVQSGAEVKKPGASVKVSCKASGGTFSSYAISWVRQAPGQGLEWMGGIIPIFGTANYAQKFQGRVTITADESTSTAYMELSSLRSEDTAVYYCARGGSGRFDYWGQGTLVTVSS VL: QSALTQPASVSGSPGESIIISCTGTSSDVGAYNYVSWYQQHLGKAPKLMIYDVSQRPSGVSDRFSGSKSGNTASLTISGLQAEDEADYYCSSFTGDSVIFGGGTKLTVL please.
0.03
